Source listed as the supplement of paper PMC10567573.

B1: PTPN9 (parent)
chain: TQHLPRECLPENLGGYVKIDLATW

Variants of: B1
test_summary: protein stability index of a GFP-peptide fusion (GPS, HEK-293T) (PSI 1-6); higher = more stable;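 further: lentivirally expressed fusions sorted by FACS into six bins by GFP to DsRed ratio, PSI derived from sequencing read proportions per bin multiplied by bin number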
test_settings: c terminus: a fixed tail appended
# binarize protein stability index: threshold 2 inclusive, high side y, low side n

Challenge: Is the recorded value of protein stability index equal to or greater than 2 for this variant? `L9A`
Response given: y

Challenge: Check this variant for protein stability index at or above 2: `N12W`
Response given: n

Challenge: API: above_or_equal(metric=protein stability index, cutoff=2) for item `C8Q`
Response given: y

Challenge: Threshold query (protein stability index >= 2) on `P10Q`
Response given: n

Challenge: Would you say `A22C` shows protein stability index at minimum 2?
Response given: n

Challenge: Quick check, protein stability index >= 2? `T23G`
Response given: n

Challenge: Reported protein stability index reaches at least 2 for `C8E` ?
Response given: y

Challenge: // inclusive: protein stability index at least 2? input: `E11D`
Response given: n

Challenge: Given the entry `I19A` , answer whether its protein stability index meets or surpasses 2.
Response given: y

Challenge: Given `P5A` , state whether its protein stability index is at least 2.
Response given: y

***
Challenge: Please tell me: is the variant `L21F` at or over 2 in terms of protein stability index?
Response given: n

Challenge: Decide: is the reported value of protein stability index for `T23W` equal to or greater than 2?
Response given: y

Challenge: Quick check, protein stability index >= 2? `Y16R`
Response given: y
